target: Monoamine transporters; serotonin & dopamine (Rattus norvegicus) (UniProt P31652+P23977); test: Ratio of binding affinity on SERT with respect to DA; type: protein assay
Sequence (P23977 whole entry, looked up): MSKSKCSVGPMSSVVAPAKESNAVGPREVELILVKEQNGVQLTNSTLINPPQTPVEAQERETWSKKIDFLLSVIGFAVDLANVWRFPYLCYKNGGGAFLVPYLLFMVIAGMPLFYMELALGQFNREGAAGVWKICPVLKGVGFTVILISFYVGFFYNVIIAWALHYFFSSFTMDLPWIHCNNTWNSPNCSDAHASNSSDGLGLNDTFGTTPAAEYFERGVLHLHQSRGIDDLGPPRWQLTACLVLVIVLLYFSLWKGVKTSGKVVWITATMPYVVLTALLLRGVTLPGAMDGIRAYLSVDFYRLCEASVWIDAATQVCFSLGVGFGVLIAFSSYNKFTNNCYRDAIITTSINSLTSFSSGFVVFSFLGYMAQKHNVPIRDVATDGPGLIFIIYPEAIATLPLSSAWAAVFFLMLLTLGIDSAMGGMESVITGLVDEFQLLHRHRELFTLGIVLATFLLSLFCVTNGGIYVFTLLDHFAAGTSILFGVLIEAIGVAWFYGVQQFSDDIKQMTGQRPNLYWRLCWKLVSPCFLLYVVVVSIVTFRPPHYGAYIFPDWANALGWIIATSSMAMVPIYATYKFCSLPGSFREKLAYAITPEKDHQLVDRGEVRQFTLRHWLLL
Sequence (P31652 whole entry, looked up): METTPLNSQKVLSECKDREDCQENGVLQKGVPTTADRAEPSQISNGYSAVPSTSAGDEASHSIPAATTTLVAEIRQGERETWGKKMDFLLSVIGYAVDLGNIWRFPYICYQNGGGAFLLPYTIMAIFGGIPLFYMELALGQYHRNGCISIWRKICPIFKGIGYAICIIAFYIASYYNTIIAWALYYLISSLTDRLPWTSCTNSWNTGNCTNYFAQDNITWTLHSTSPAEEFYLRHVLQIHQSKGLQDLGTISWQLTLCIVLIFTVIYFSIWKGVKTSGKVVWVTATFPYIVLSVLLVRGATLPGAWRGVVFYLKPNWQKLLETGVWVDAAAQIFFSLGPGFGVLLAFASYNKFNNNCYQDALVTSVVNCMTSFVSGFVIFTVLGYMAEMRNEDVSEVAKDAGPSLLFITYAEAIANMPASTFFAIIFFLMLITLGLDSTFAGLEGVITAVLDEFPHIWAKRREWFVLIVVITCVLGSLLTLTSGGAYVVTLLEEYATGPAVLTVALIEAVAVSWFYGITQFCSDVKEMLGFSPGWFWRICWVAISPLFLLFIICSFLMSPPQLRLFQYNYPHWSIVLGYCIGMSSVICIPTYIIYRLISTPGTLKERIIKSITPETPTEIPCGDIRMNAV
endpoint_label: Ratio

| entry_smiles | value_reported |
| --- | --- |
| c1ccc(C(OCCN2CCN(Cc3ccc4ncccc4c3)CC2)c2ccccc2)cc1 | 4 |
| c1ccc(C(OCCN2CCN(Cc3ccc4ccccc4n3)CC2)c2ccccc2)cc1 | 10 |
| c1ccc(C(OCCN2CCN(CCCc3cccs3)CC2)c2ccccc2)cc1 | 162 |
| Fc1ccc(C(OCCN2CCN(C/C=C/c3cccs3)CC2)c2ccc(F)cc2)cc1 | 40 |
| Fc1ccc(C(OCCN2CCN(Cc3cc4ccccc4o3)CC2)c2ccc(F)cc2)cc1 | 45 |
